The measurements presented in this section are drawn from patent US8389743B2.

# TESTED ON: rat histamine H3 receptors (Rattus norvegicus, UniProt Q9QYN8)
# Construct: Frozen rat frontal brain or frozen human post-mortem frontal brain is homogenized; from tissue; host or cells: rat frontal brain membranes
# Sequence (Q9QYN8 whole entry): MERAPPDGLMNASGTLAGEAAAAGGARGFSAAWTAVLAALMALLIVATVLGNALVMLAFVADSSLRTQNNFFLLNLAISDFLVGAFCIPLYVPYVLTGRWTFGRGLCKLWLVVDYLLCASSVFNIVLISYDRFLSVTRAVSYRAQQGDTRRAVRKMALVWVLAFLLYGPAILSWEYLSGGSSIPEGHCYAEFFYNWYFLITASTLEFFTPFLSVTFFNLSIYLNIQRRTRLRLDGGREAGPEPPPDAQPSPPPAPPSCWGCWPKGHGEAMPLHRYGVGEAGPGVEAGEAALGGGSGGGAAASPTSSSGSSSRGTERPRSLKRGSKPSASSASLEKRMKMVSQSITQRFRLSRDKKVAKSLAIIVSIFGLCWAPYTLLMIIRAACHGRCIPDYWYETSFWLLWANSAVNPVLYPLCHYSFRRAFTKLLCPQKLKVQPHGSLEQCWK
# PROCEDURE DETAILS: Rat Histamine H3 Receptor Binding
# CONDITION NOTES: rat frontal brain membranes; radioligand 3H-N-methyl-histamine 1 nM; 1 hour incubation; read-out: rH3 Ki
pKi: −log10 of the molar value. Where a name gives a salt, the structure may show the parent alone.
ATTRIBUTE MEASURED: pKi

These recorded examples may help you get a feel for the data.
>>> df
                                   compound  attribute_measured  observed_result
0  CCNC(=O)C1CC(F)(c2ccc(CN3CCC[C@@H]3C)c(F)c2)C1 (stereo partly drawn) [Example 59]                 pKi             7.67
1  CN(CC1CC1)C(=O)C1CC(F)(c2ccc(CN3CCCC3)c(Cl)c2)C1 (mixture of isomers) [Example 50]                 pKi             7.49
2  O=C(C1CC(F)(c2ccc(CN3CCCC3)c(F)c2)C1)N1CCCC1 (stereo not drawn) [Example 9, hydrochloride]                 pKi             7.72
3  CCNC(=O)C1CC(c2ccc(CN3CCCC3)c(F)c2)C1 (stereo not drawn) [Example 13]                 pKi             8.00

I = CC(C)CNC(=O)C1CC(F)(c2ccc(CN3CCCC3)c(F)c2)C1 (single isomer, unassigned) [Example 55]
II = CCN(C)C(=O)C1CC(F)(c2ccc(CN3CCCC3)c(F)c2)C1 (stereo not drawn) [Example 23]
Ask | I'm curious, which of these has a smaller pKi number: I or II ? To answer, give the label that identifies your chosen option.
Reply | II
(II: 7.54, I: 8.00)
